- study-target: GST-BAI-1 Associated Protein PDZ domain 4 (Homo sapiens (Human)), Q96QZ7
- Sequence (Q96QZ7 other isoform, or with tags, fused parts or gaps): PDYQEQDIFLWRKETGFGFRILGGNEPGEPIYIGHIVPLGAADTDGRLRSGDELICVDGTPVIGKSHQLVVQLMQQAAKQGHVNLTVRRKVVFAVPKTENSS
- assay-method-text: G' assay; also: key of the grades not given here
assay-readout: Classification (A450 class)
Numbers only, in A450 class.

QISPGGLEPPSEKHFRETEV (modifications not checked) [TAX]    2

Hi, could you look up Classification for each item in my list?
1. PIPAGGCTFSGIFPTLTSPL (modifications not checked) [KIA 1481]
2. QDFRRAFRRILARPWTQTAW (modifications not checked) [alpha-2B Adrenergic receptor]
3. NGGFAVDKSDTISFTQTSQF (modifications not checked) [glutamate transporter 3]
4. EALQPEPGRKRIPLTRTTTF (modifications not checked) [somatostatin receptor 4]
5. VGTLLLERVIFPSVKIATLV (modifications not checked) [AdenoE4 typ9]
6. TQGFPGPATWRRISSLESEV (modifications not checked) [NMDA Glutamate Receptor 2C (cysteine-free)]

1
5
1
1
5
3

The reported measurements were obtained from patent US20050282743A1.
